For each record, write down the corresponding GI50.
tested on: SF-539; assay: NCI tumour cell line growth inhibition, 48 h
The source made the active and inactive calls. Rule as the data show it: active = GI50 up to about 1.1 µM and inactive = higher. Square brackets hold non-standard residues; d marks the D form. Peptide text beside a SMILES is read from it. * marks the point of attachment. ξ: configuration not given here. NMeY = CN[C@@H](Cc1ccc(O)cc1)C(=O)O; Cbz = O=C(OCc1ccccc1)*; ξA = CC(N)C(=O)O

# count of solved cases: 3
CCC(C)C(NC(=O)C(NC(=O)C(CC(N)=O)NC(=O)CN)C(C)O)C(=O)NC(C(=O)NC(C)C(=O)NC(C(=O)NC(CCC(=O)O)C(=O)NC(CC(C)C)C(=O)NC(CC(=O)O)C(=O)NC(C(=O)NC(Cc1ccc(O)cc1)C(=O)N1CCCC1C(=O)O)C(C)O)C(C)C)C(C)C (configuration not stated) (H-GNTIVAVELDTYP-OH; configuration not given here)
> 50 µM (inactive)
Cc1ccc(S(=O)(=O)N/N=C/c2oc(-c3ccncc3)c(-c3ccncc3)c2[N+](=O)[O-])cc1
> 100 µM (inactive)
CCOc1ccccc1NC(=O)C(C#N)C1=C(Cl)C(=O)c2ccccc2C1=O (configuration not stated)
2.12 µM (inactive)

Hi! Can you tell me GI50 for each of these compounds?
1. CCCC(C)n1c(C)nc2c1C(=O)c1ccccc1C2=O (configuration not stated)
2. C[C@@H]1CC[C@]2(C)C3(C)CC[C@]2(OC3=O)[C@@]12CC(c1ccoc1)OC2=O (some centres not stated)
3. O=C(OCCOCCOC(=O)c1c[nH]cc1-c1ccccc1)c1c[nH]cc1-c1ccccc1
4. Cc1ccc(S(=O)(=O)OCOS(=O)(=O)c2ccc(C)cc2)cc1

1. 13 µM (inactive)
2. 30.5 µM (inactive)
3. 17.9 µM (inactive)
4. > 100 µM (inactive)

Dear colleague, could you send me GI50 for each of the items below? Thanks.
1. C=C(CO)[C@H]1Oc2ccc(C(C)=O)cc2[C@@H]1O
2. COc1ccc(C[C@@H](C(=O)N[C@@H](C)C(N)=O)N(C)C(=O)[C@@H]2CCCN2C(=O)[C@H](CC(C)C)NC(=O)C(C)NC(=O)OCc2ccccc2)cc1 (some centres not stated) (Cbz-[ξA]LP[NMeY](Me)A-NH2)
3. Cc1ccc(C)c(N2C(=O)C(=O)C(c3nc4ccccc4s3)/C(=N\c3cccc4c(=O)[nH][nH]c(=O)c34)C2=O)c1 (configuration not stated)
4. CC(=O)c1csc2c1C(=O)c1ccccc1C2=O
5. COc1cc2c(cc1OC)C1Cc3cc(OC)c(OC)cc3C(C2)N1C

1: > 100 µM (inactive); 2: > 100 µM (inactive); 3: 91.8 µM (inactive); 4: 2.08 µM (inactive); 5: 20.8 µM (inactive)

Go through the items and report each one's GI50.
1. CC(=O)N1c2ccccc2N(C(C)=O)C1c1ccc(C2N(C(C)=O)c3ccccc3N2C(C)=O)[nH]1
2. O=C(N/N=C\c1ccc([N+](=O)[O-])cc1)Nc1ccc2ccccc2c1
3. Clc1ccc(C[P+](c2ccccc2)(c2ccccc2)c2ccccc2)c(Cl)c1
4. COc1cc2oc3c(c(=O)c2c(O)c1/C=C/C(C)C)C(C=C(C)C)Oc1cc(O)ccc1-3 (configuration not stated)
5. O=C(/C=C/c1ccco1)CC(=O)/C=C/c1ccco1

1: > 100 µM (inactive); 2: 20.7 µM (inactive); 3: 3.06 µM (inactive); 4: 17.5 µM (inactive); 5: 13.9 µM (inactive)
